System: PC-3
assay: NCI tumour cell line growth inhibition, 48 h
Active and inactive are the calls of the source. Cut-off read from the data, not from the text of the source: active = GI50 up to about 1.1 µM and inactive = higher.
measuredParameter: GI50

compound	measuredParameter	result
CCOC(=O)C(NC(=O)c1ccccc1)(Nc1cc(C)on1)C(F)(F)F (stereo unspecified)	GI50	> 100 µM (inactive)
CCC/C(Cl)=N\OC(=O)Nc1ccc(F)cc1	GI50	17.3 µM (inactive)
N#Cc1c(-c2ccc(Cl)cc2)c(-c2ccc(Cl)cc2)nn(CCOC(=O)CCC(=O)O)c1=O	GI50	0.423 µM (active)
COC(=O)C1=C(C(=O)OC)C2OC1c1cc3ccccc3cc12	GI50	15.2 µM (inactive)

Record Cc1cc(=O)oc2cc(O)ccc12 [HYMECROMONE] . Reported GI50: > 100 µM (inactive)

Record `N#Cc1cc2cc3c4c(c2oc1=O)CCCN4CCC3` . Reported GI50: > 100 µM (inactive)

---

System: NCI/ADR-RES
assay: NCI tumour cell line growth inhibition, 48 h
Active and inactive are the calls of the source. Cut-off read from the data, not from the text of the source: active = GI50 up to about 1.1 µM and inactive = higher.
// allowed return values: active, inactive

Field: outcome | Entry: CC(N1CCOCC1)C(O)(c1ccccc1)c1ccccn1 (centres undefined)
inactive

Field: outcome | Entry: `CCOC(=O)CCc1cccc2c1oc1c(CCNC(=O)OCC3c4ccccc4-c4ccccc43)cccc12`
inactive

Field: outcome | Entry: CC(CN(C)C)C(C#N)(c1ccccc1)c1ccccc1 (centres undefined)
inactive

Field: outcome | Entry: COC(=O)C1=C(O)C(C(=O)OC)[C@]2(O)[C@H](C(=O)OC)[C@H]1C[C@@H](c1ccccc1OC)[C@H]2C(=O)OC (some centres undefined)
inactive

Field: outcome | Entry: `COC1=C(OC)C(=O)c2cc(C)c(=O)c(C)cc2C1=O`
inactive

Field: outcome | Entry: `O=C(NCCCCNCCCNC(=O)OCc1ccccc1)OCc1ccccc1`
inactive

Field: outcome | Entry: CC1OC(=O)C(C(C)C)NC(=O)C(C(C)C)OC(=O)C(C(C)C)NC(=O)C(C)OC(=O)C(C(C)C)NC(=O)C(C(C)C)OC(=O)C(C(C)C)NC(=O)C(C)OC(=O)C(C(C)C)NC(=O)C(C(C)C)OC(=O)C(C(C)C)NC1=O (centres undefined)
active

---

System: HOP-18
assay: NCI tumour cell line growth inhibition, 48 h
The source made the active and inactive calls. No stated cut-off is given here; in the data, active = GI50 up to about 1.1 µM and inactive = higher.
# GI50 listing for each entry below

Record CCC(=O)O[C@@H]1C2C(OC(C)=O)C34COC(C)([C@@H]3C3C(C[C@]3(C)OC(C)=O)[C@@H](OC(=O)c3ccccc3)C4=O)[C@H](OC(C)=O)[C@@]2(OC(C)=O)C[C@@H]1C (stereo not given in full) . Reported GI50: > 100 µM (inactive)

Record `c1ccc(/N=c2\snc3scc(-c4ccccc4)n23)cc1` . Reported GI50: 24.8 µM (inactive)

Record `Cn1c2c(c3ccccc31)CCN(CCN1CCN(c3cccc(Cl)c3)CC1)C2=O` . Reported GI50: > 100 µM (inactive)

Record `CCN(CC)C(=O)Cc1c(C(=O)N(CC)CC)c(=O)nc2sccn12` . Reported GI50: > 100 µM (inactive)

Record `Cc1c2ccccc2c(=O)n2c(-c3ccccn3)cccc12` . Reported GI50: > 100 µM (inactive)

---

System: A549
assay: NCI tumour cell line growth inhibition, 48 h
The source made the active and inactive calls. Cut-off read from the data, not from the text of the source: active = GI50 up to about 1.1 µM and inactive = higher.
// allowed return values: active, inactive

Below are worked cases with known answers.
molecule	assignedClass
CC1=C(C)CC(C#N)(C#N)C(C#N)(C#N)C1	inactive
O=Cc1c(O)ccc2ccc(O)c(-c3c(O)ccc4ccc(O)cc34)c12	inactive
Cc1c(C)n(COCCO)c2ncnc(N)c12	inactive
Cc1cc(=O)nc(S(=O)(=O)NC(=O)Nc2cccc(Cl)c2)[nH]1	inactive
O=C(NC(=S)Nc1ccc2c(c1)Sc1ccccc1O2)c1ccccc1	inactive
O=C(NCCN1C(=O)CN=C(c2ccc(Cl)cc2)c2cc(Cl)ccc21)OCc1ccccc1	inactive

Continue with the next molecule.
Field: outcome | Entry: `CSc1ccc2c(cc1=O)[C@@H](NC(=O)c1ccc(Cl)cc1)CCc1cc(O)c(O)c(O)c1-2`
inactive

---

System: LOX IMVI
assay: NCI tumour cell line growth inhibition, 48 h
Activity calls are given as the source filed them. No stated cut-off is given here; in the data, active = GI50 up to about 1.1 µM and inactive = higher.
// allowed return values: T = active, F = inactive

Below are worked cases with known answers.
compound	assignedClass
CC(C)(C)OC(=O)N1CCC[C@H]1CSC[C@@H]1CCCN1C(=O)OC(C)(C)C	F
O=C(NCCN1C(=O)CN=C(c2ccc(Cl)cc2)c2cc(Cl)ccc21)OCc1ccccc1	F

Field: outcome | Entry: `O=C1C[C@@H]2[C@@H](CCC23CCCC3)N1`
F

Field: outcome | Entry: `COc1ccc2oc(=N)c(C(N)=O)cc2c1`
F

Field: outcome | Entry: `O=C1c2ccccc2C(=O)c2c(O)ccc(O)c21`
F

Field: outcome | Entry: NC1c2c(Cl)sc(Cl)c2C(=O)C1O (stereo unspecified)
F

Field: outcome | Entry: `CC(=O)/C(=C\n1c(=S)[nH]c2ccc([N+](=O)[O-])cc21)C(=O)Nc1ccccc1C`
F

Field: outcome | Entry: CCCCCCCCCCCCCCCCCCNc1ccn(C2OC(COP(=O)(O)OCC3OC(n4ccc(NC(=O)CCCCCCCCCCCCCCCCC)nc4=O)C(OC(C)=O)C3OC(C)=O)C(OC(C)=O)C2OC(C)=O)c(=O)n1 (stereo unspecified)
F

Field: outcome | Entry: `Fc1ccc(F)c(/C=N/C23CC4CC(CC(C4)C2)C3)c1`
F

Field: outcome | Entry: `Cc1nc2c(sc3nc4c(cc32)CCC4)c(=O)o1`
F

---

System: IGROV-1
assay: NCI tumour cell line growth inhibition, 48 h
Active and inactive are the calls of the source. Rule as the data show it: active = GI50 up to about 1.1 µM and inactive = higher.
measuredParameter: GI50

Some molecules with recorded GI50:
molecule	result
CC1=C(Cl)C[C@@H](/C(C)=C\Cl)O[C@@]1(O)C(Br)Br	34.3 µM (inactive)
CCOC(=O)Nc1ccc(S(=O)(=O)Nn2cnnc2)cc1	40.7 µM (inactive)
COc1ccc(OC)c2c1CC(C(=O)O)(C(=O)O)CC2=O	> 100 µM (inactive)
O[C@@H]1C[C@H]2N3CC[C@@]2(c2cc4c(cc2C3)OCO4)[C@H]2O[C@@H]12	> 100 µM (inactive)

Per the reported IGROV-1 data, CN(C)C1C(=O)C(C(N)=O)=C(O)C2(O)C(O)=C3C(=O)c4c(O)cccc4C(C)(O)C3CC12 (stereo unspecified) has GI50 of 52.8 µM (inactive)

Per the reported IGROV-1 data, `CCCCn1cnc2c(c(CC#N)nn2-c2ccccc2)c1=N` has GI50 of 68.9 µM (inactive)

Per the reported IGROV-1 data, `CON(C)C(=O)CCCO` has GI50 of > 100 µM (inactive)

Per the reported IGROV-1 data, C=C1CCC2[C@@H](CCC3[C@]2(C)CCC[C@]3(C)C(=O)OC)C1CC=O (stereo partly specified) has GI50 of 20.2 µM (inactive)

Per the reported IGROV-1 data, `O=C(NC(=S)Nc1ccc2c(c1)Sc1ccccc1O2)c1ccccc1` has GI50 of 29.6 µM (inactive)

Per the reported IGROV-1 data, COc1ccc(P2(=S)SP(=S)(c3ccc(Cl)cc3)S2)cc1 (stereo unspecified) has GI50 of > 100 µM (inactive)

Per the reported IGROV-1 data, `Cc1cc(=O)oc2cc(O)ccc12` has GI50 of > 100 µM (inactive)

---

Test system: SK-OV-3
assay: NCI tumour cell line growth inhibition, 48 h
Activity calls are given as the source filed them. No stated cut-off is given here; in the data, active = GI50 up to about 1.1 µM and inactive = higher.
// allowed return values: YES for active, NO for inactive

Below are worked cases with known answers.
compound	testTarget	assignedClass
CC1(c2ccccc2)CC(c2cccc([N+](=O)[O-])c2)=NO1 (stereo not given)	SK-OV-3	NO
COc1c(C(CC(C)C)OC(C)=O)ccc2c1C(=O)OCc1cc(C)cc(O)c1O2 (stereo not given)	SK-OV-3	NO
CCc1ccccc1NNc1cc(=O)[nH]c(=O)[nH]1	SK-OV-3	NO
O=C1CC(n2cccc2)c2c(Br)sc(Br)c21 (stereo not given)	SK-OV-3	NO
S=C1CC(c2ccccc2)Sc2ccccc2N1 (stereo not given)	SK-OV-3	NO
Cc1cc(C)nc(NS(=O)(=O)c2ccc(NC(=O)c3ccc4nc5ccccc5c(Nc5ccc(S(=O)(=O)N=C(N)N)cc5)c4c3)cc2)n1	SK-OV-3	NO
C=C1CC2CC[C@@]34C[C@@H]5O[C@@H]6C(O[C@H]7CC[C@H](CC(=O)OC8[C@@H](C)C9OC%10C[C@]%11(C[C@@H]%12O[C@@]%13(C[C@@H](C)[C@@H]%12O%11)C[C@H](C)[C@@H]%11OC%12CC(C(O)CO)OC%12C[C@@H]%11O%13)OC%10CC9O[C@H]8C[C@H]8O[C@@H](CC[C@@H]1O2)C[C@@H](C)C8=C)O[C@@H]7[C@@H]6O3)C5O4 (stereo not given in full)	SK-OV-3	YES
O=C(O)c1cc2c3ccccc3nc-2c[nH]1	SK-OV-3	NO

Continue with the next compound.
Field: outcome | Entry: `O=[N+]([O-])c1ccccc1OCCOc1ccccc1[N+](=O)[O-]`
NO

These measurements were taken from ChEMBL document CHEMBL1201862.
